- System: HL-60
- assay.summary: Cytotoxicity against human HL60 cells by SRB assay
- Assay type: functional, cell-based
pIC50: −log10 of the molar value.
outcome.measure: pIC50

- COc1cc(/C=C/C=O)cc(OC)c1OC/C=C(\C)CCC=C(C)C: 4.92
- COc1cc(/C=C/CO)cc(OC)c1OC/C=C(\C)CCC=C(C)C: 5.17
